Reported values: IC50 for Acetylcholinesterase (Homo sapiens), one per item.
Number only, in µM; omit the unit.

CCCN1CCN(c2nccc(NCc3cccc4ccccc34)n2)CC1; 19
CC1CCN(c2nccc(NC(c3ccccc3)c3ccccc3)n2)CC1; 32.2
CC(C)C1CCN(c2nccc(NCc3cccc4ccccc34)n2)CC1; 16.7

Exercise: Need IC50, item c1ccc(C(Nc2ccnc(N3CCNCC3)n2)c2ccccc2)cc1
Solution: 31.3
